target: ATP-dependent translocase ABCB1 (Homo sapiens, UniProt P08183); assay: Inhibition of human MDR1 transfected in mouse T lymphoma cells assessed as rhodamine-123 accumulation measured as fluorescence activity ratio quotient at 2 uM preincubated for 10 mins followed by rhodamine-123 addition measured after 20 mins by flow cytometry relative to verapamil; assay type: cell-based; set-up: scale not given: the % may be the effect or the level left
Sequence (P08183 whole entry): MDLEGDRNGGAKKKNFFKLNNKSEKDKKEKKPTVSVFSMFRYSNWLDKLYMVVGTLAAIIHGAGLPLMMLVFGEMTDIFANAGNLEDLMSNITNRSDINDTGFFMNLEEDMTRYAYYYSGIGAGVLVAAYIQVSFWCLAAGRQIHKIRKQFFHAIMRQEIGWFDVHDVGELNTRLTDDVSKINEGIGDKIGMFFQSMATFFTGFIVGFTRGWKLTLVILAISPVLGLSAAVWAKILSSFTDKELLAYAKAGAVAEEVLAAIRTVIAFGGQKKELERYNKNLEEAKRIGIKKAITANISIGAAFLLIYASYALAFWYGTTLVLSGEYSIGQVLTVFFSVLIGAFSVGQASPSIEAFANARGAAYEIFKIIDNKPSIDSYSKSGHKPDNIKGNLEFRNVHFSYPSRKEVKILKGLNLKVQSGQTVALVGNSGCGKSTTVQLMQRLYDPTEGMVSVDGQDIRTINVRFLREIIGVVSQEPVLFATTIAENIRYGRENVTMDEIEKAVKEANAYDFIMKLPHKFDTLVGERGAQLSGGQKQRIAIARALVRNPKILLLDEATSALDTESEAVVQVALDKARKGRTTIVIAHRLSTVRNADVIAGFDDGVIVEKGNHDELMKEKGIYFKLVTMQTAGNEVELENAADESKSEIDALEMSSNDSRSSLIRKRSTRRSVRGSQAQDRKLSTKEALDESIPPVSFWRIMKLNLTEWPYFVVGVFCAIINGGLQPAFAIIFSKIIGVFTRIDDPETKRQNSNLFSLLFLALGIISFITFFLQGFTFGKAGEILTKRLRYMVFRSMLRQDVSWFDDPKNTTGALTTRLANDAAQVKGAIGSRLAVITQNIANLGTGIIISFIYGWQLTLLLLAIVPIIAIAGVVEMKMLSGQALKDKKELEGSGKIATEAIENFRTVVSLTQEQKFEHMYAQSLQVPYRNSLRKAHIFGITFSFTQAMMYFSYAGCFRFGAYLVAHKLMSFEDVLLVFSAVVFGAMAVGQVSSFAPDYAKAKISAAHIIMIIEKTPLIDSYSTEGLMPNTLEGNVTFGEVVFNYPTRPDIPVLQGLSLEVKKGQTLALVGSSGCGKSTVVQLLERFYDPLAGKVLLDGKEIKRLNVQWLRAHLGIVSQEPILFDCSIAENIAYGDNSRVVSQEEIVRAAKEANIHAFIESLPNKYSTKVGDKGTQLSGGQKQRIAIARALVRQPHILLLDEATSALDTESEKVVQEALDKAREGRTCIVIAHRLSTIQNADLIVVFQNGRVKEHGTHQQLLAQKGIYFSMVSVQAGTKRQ

{"columns": ["smilesStr", "Activity"],
 "data": [
  ["COc1cc(OC)cc(C(=O)[Se]CC(=O)C(C)(C)C)c1", "46 to 228%"],
  ["CC(C)(C)C(=O)C[Se]C(=O)c1ccc(Cl)cc1", "34 to 217%"]
]}
